Target: T1, IL-18 receptors on HEK-Blue IL-18 reporter cells (UniProt Q13478 19-541; O95256 20-599, limits assumed); also: unit not given here
T1 sequence (looked up) 1: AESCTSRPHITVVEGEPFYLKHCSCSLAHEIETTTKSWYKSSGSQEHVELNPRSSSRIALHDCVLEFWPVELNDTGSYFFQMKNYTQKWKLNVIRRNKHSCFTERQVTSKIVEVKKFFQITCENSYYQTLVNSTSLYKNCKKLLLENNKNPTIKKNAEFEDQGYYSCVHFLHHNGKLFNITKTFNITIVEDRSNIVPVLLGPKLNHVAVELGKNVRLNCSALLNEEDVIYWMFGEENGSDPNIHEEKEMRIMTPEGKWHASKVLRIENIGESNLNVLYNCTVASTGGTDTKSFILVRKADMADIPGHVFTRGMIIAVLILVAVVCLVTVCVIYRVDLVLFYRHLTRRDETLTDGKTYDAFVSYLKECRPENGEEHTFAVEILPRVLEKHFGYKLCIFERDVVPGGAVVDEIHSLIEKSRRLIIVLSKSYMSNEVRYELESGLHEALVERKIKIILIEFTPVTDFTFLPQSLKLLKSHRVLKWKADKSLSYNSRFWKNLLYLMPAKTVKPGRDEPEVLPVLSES
T1 sequence (looked up) 2: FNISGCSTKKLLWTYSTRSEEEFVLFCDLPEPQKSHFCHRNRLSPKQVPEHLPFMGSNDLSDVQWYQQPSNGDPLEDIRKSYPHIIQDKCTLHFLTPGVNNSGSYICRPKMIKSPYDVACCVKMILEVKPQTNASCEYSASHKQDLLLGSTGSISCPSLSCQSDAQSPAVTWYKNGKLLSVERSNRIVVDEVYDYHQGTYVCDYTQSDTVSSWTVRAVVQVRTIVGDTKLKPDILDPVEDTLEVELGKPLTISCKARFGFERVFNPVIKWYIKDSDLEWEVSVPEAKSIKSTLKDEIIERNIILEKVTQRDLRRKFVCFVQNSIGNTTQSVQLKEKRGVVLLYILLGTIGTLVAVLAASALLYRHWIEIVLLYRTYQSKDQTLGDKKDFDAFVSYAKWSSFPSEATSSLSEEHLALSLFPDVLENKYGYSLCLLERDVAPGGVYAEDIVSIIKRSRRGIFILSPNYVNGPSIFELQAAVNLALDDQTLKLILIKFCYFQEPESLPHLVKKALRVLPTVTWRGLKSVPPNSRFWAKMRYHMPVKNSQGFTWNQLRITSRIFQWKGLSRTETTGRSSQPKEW
Test: cell-based or functional assay
Can you tell me HEK-Blue activity, No BP, DF-100,000 for the items I'm about to list?
Could you respond with only the numeric value?

### Prompt For yeast display IL-18 variant K53W, S55A (ligand) YFGKLESKLSVIRNLNDQVLFIDQGNRPLFEDMTDSDMRDNAPRTIFIISMYWDAQPRGMAVTISVKSEKISTLSSENKIISFKEMNPPDNIKDTKSDIIFFQRSVPGHDNKMQFESSSYEGYFLASEKERDLFKLILKKEDELGDRSIMFTVQNED , what is its reported HEK-Blue activity, No BP, DF-100,000?
### Response 0.13

### Prompt Consider next the binder yeast display IL-18 variant T34I, S36V, D40I, N41M, K53G, S55Y (ligand) YFGKLESKLSVIRNLNDQVLFIDQGNRPLFEDMIDVDMRIMAPRTIFIISMYGDYQPRGMAVTISVKSEKISTLSSENKIISFKEMNPPDNIKDTKSDIIFFQRSVPGHDNKMQFESSSYEGYFLASEKERDLFKLILKKEDELGDRSIMFTVQNED in the same way.
### Response 0.11

### Prompt And what about the binder yeast display IL-18 variant K53D, S55N (ligand) YFGKLESKLSVIRNLNDQVLFIDQGNRPLFEDMTDSDMRDNAPRTIFIISMYDDNQPRGMAVTISVKSEKISTLSSENKIISFKEMNPPDNIKDTKSDIIFFQRSVPGHDNKMQFESSSYEGYFLASEKERDLFKLILKKEDELGDRSIMFTVQNED ?
### Response 0.13
